// values below are reported ΦCL (chemiluminescence efficiency)
Assay: Chemiluminescence properties of NIR luminophores under physiological conditions
Format: physicochemical
Details: physiological conditions
Could you give me the number in %? Just the number is fine.

Here is how some compounds turned out for ΦCL (chemiluminescence efficiency).
                                   compound                   reported_endpoint  result_number
0  COC1(c2cc(O)c(/C=C/C(=O)O)cc2/C=C/C2=C(C#N)C(=C(C#N)C#N)OC2(C)C)OOC12C1CC3CC(C1)CC2C3 (stereo not shown) [Luminophore 3]  ΦCL (chemiluminescence efficiency)           0.70
1  COC1(c2cc(O)c(/C=C/C(=O)O)cc2/C=C/C2=CC(=C(C#N)C#N)c3ccccc3O2)OOC12C1CC3CC(C1)CC2C3 (stereo not shown) [Luminophore 2]  ΦCL (chemiluminescence efficiency)           1.12
2  COC1(c2cc(O)ccc2/C=C/C2=CC(=C(C#N)C#N)c3ccccc3O2)OOC12C1CC3CC(C1)CC2C3 (stereo not shown) [Luminophore 1]  ΦCL (chemiluminescence efficiency)           0.82

Alright, here's another compound for you.
Problem: Recorded ΦCL (chemiluminescence efficiency) for COC1(c2ccc(/C=C/C3=CC(=C(C#N)C#N)c4ccccc4O3)c(O)c2Cl)OOC12C1CC3CC(C1)CC2C3 (stereo not shown) [Luminophore 4] , please?
Result: 0.95
